System: HIV-1ADA
experimentNotes: EC50 by HIV-1 RT activity in infected MDM
Assay type: cell-based
statedConditions: Human immunodeficiency virus 1, 240 h, read-out: EC50 (RT activity)
measuredProperty: pEC50
pEC50 here: minus log base 10 of the concentration, concentration in moles per litre.

Prompt line: // query pEC50 value for entry Nc1ccn([C@H]2CS[C@@H](CO)O2)c(=O)n1
Response line: 7.71
